experimentalTarget: Transient receptor potential cation channel subfamily V member 1 (Homo sapiens) (UniProt Q8NER1)
Sequence (Q8NER1 whole entry): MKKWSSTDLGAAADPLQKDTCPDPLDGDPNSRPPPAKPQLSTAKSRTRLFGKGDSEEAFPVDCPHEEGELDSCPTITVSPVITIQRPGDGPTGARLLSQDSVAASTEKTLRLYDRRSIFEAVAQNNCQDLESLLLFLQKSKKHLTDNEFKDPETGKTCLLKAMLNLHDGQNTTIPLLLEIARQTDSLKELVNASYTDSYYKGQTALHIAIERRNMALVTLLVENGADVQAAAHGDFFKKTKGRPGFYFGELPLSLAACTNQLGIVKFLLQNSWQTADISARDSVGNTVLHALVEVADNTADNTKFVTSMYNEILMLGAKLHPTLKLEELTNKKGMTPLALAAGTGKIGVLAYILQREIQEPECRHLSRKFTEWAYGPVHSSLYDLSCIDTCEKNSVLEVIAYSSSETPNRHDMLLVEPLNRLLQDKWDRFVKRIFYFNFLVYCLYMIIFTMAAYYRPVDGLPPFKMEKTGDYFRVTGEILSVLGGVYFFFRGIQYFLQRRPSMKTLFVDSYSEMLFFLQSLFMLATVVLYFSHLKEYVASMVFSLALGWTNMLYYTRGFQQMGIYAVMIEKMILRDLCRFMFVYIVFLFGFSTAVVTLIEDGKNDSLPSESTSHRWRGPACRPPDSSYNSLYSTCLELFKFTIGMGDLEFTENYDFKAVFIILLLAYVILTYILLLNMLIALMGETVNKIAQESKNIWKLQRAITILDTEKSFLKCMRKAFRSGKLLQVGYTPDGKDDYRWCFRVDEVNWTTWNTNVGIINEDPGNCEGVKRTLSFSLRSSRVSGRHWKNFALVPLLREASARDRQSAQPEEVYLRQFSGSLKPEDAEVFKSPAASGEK
runDescription: Agonist activity at human TRPV1 expressed in HEK293 cells assessed as increase in calcium influx by measuring ratio of 340/380 nm excitatory wavelength at 10 uM treated for 2 mins by Fura-2AM dye-based fluorescence assay
Assay type: cell-based
quantityName: Ratio

{"compound": "COc1cc(CNC(=O)CCCC/C=C/C(C)C)ccc1OC(=O)CCC(=O)Oc1ccc(C(N)=S)cc1", "dataValue": 1.94}
{"compound": "COc1cc(CNC(=O)CCCC/C=C/C(C)C)ccc1OCCCCOc1ccc(C(N)=S)cc1", "dataValue": 1.7}
{"compound": "COc1cc(CNC(=O)CCCCCCC(C)C)ccc1OCCCCOc1ccc(C(N)=S)cc1", "dataValue": 1.59}
{"compound": "COc1cc(CNC(=O)CCCC/C=C/C(C)C)ccc1OCCCCCOc1ccc(-c2cc(=S)ss2)cc1", "dataValue": 1.71}
{"compound": "COc1cc(CNC(=O)CCCCCCC(C)C)ccc1O [DIHYDROCAPSAICIN]", "dataValue": 2}
